- subject of test: Beta-lactamase L1 (Stenotrophomonas maltophilia) (UniProt P52700)
- Sequence (P52700 34-290 limits assumed): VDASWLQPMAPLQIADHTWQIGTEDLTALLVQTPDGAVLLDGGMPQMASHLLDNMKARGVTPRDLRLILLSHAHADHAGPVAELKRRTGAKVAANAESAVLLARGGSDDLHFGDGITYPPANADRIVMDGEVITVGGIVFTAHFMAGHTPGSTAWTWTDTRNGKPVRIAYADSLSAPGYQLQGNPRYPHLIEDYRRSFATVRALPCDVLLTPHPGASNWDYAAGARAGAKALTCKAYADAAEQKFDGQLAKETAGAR
- measurement protocol: Inhibition of Stenotrophomonas maltophilia metallo-beta-lactamase L1 expressed in Escherichia coli BL21(DE3) assessed as cefalexin V antimicrobial MIC incubated at 37 degC for 12 hrs by macrodilution (tube) broth method (reference value: 8 ug/mL)
The compounds listed here are annotated with their MIC.
The reply should contain only the number, in µg/mL.

O=C(CSc1nnc(-c2ccccc2C(=O)O)[nH]1)Nc1ccc([N+](=O)[O-])cc1    16
O=C(CSc1nnc(-c2ccccc2C(=O)O)[nH]1)Nc1cccc([N+](=O)[O-])c1    8
O=C(CSc1nnc(-c2ccccc2C(=O)O)[nH]1)Nc1nc2ccccc2[nH]1    8
O=C(CSc1nnc(-c2ccccc2C(=O)O)[nH]1)Nc1ccccc1    8
O=C(CSc1nnc(-c2ccccc2C(=O)O)[nH]1)Nc1nc2ccccc2s1    8
O=C(CSc1nnc(-c2ccccc2C(=O)O)[nH]1)Nc1ccccc1Cl    64
O=C(CSc1nnc(-c2ccccc2C(=O)O)[nH]1)Nc1ccc(Cl)cc1    8
O=C(CSc1nnc(-c2ccccc2C(=O)O)[nH]1)NCc1ccccc1    16

MIC lookup needed for O=C(CSc1nnc(-c2ccccc2C(=O)O)[nH]1)Nc1cccc(Cl)c1 , thanks.
64

----------
The compounds listed here are annotated with their MIC.
- subject of test: Metallo-beta-lactamase type 2 (Bacteroides fragilis)
- measurement protocol: Inhibition of Bacteroides fragilis metallo-beta-lactamase CcrA expressed in Escherichia coli BL21(DE3) assessed as cefalexin V antimicrobial MIC incubated at 37 degC for 12 hrs by macrodilution (tube) broth method (reference value: 4 ug/mL)
The reply should contain only the number, in µg/mL.

The following compounds have reported results that may help.
O=C(CSc1nnc(-c2ccccc2C(=O)O)[nH]1)Nc1ccccc1    4
O=C(CSc1nnc(-c2ccccc2C(=O)O)[nH]1)Nc1cccc([N+](=O)[O-])c1    2
O=C(CSc1nnc(-c2ccccc2C(=O)O)[nH]1)Nc1nc2ccccc2[nH]1    4

Next compound, MIC to be filled in.
MIC lookup needed for O=C(CSc1nnc(-c2ccccc2C(=O)O)[nH]1)Nc1cccc(Cl)c1 , thanks.
0.5

----------
- subject of test: Beta-lactamase (Aeromonas veronii)
- measurement protocol: Inhibition of Aeromonas veronii metallo-beta-lactamase ImiS expressed in Escherichia coli BL21(DE3) assessed as imipenem antimicrobial MIC incubated at 37 degC for 12 hrs by macrodilution (tube) broth method
The compounds listed here are annotated with their MIC.
The reply should contain only the number, in µg/mL.

The following compounds have reported results that may help.
O=C(CSc1nnc(-c2ccccc2C(=O)O)[nH]1)Nc1ccc([N+](=O)[O-])cc1    0.5
O=C(CSc1nnc(-c2ccccc2C(=O)O)[nH]1)Nc1ccccc1Cl    0.25
O=C(CSc1nnc(-c2ccccc2C(=O)O)[nH]1)Nc1nc2ccccc2[nH]1    1

Next compound, MIC to be filled in.
MIC lookup needed for O=C(CSc1nnc(-c2ccccc2C(=O)O)[nH]1)Nc1ccc(Cl)cc1 , thanks.
0.5

----------
The molecules listed here are annotated with their MIC.
- subject of test: Metallo-beta-lactamase type 2 (Bacteroides fragilis)
- measurement protocol: Inhibition of Bacteroides fragilis metallo-beta-lactamase CcrA expressed in Escherichia coli BL21(DE3) assessed as cefalexin V antimicrobial MIC incubated at 37 degC for 12 hrs by macrodilution (tube) broth method (reference value: 4 ug/mL)
The reply should contain only the number, in µg/mL.

The following molecules have reported results that may help.
O=C(CSc1nnc(-c2ccccc2C(=O)O)[nH]1)Nc1ccccc1[N+](=O)[O-]    0.25
O=C(CSc1nnc(-c2ccccc2C(=O)O)[nH]1)Nc1ccccc1Cl    2
O=C(CSc1nnc(-c2ccccc2C(=O)O)[nH]1)Nc1ccc([N+](=O)[O-])cc1    2

MIC lookup needed for O=C(CSc1nnc(-c2ccccc2C(=O)O)[nH]1)NCc1ccccc1 , thanks.
4
